- Measurement Protocol: qHTS assay to identify small molecule agonists of H2AX - cell viability counter screen (AID 1224847); also: nearly all actives have a fitted effect of over 30% in size
- Assay Conditions: CHO-K1 viability, CellTiter-Glo luminescence, 3 h; series mostly up to 154 µM
Results filed as inconclusive are left out. Activity calls are given as the source filed them. Calls follow the shape of the full dose curve.
Pick one and only one: label 1 for active, label 0 for inactive

# Compound, Label Value
measured = [
    ("CC(C)(C)c1cc(CCC(=O)NCCCCCCNC(=O)CCc2cc(C(C)(C)C)c(O)c(C(C)(C)C)c2)cc(C(C)(C)C)c1O", "label 0"),
    ("COc1cc(C(C)C)c2c(c1)S(=O)(=O)N(COc1cc(=O)n3cccc(OCCN4CCCCC4)c3n1)C2=O", "label 1"),
    ("COC(=O)CC(C)CCC=C(C)C (stereo not given)", "label 0"),
    ("Cc1occc1SSc1ccoc1C", "label 0"),
    ("ClC/C=C\\CCl", "label 0"),
    ("O=C1OC(OC(=O)c2cccnc2Nc2cccc(C(F)(F)F)c2)c2ccccc21 (stereo not given)", "label 0"),
]

Problem: Would you mind telling me which call this test gave CN1[C@@H]2CC[C@H]1CC(OC(=O)C(CO)c1ccccc1)C2 (stereo not given in full) ?
Result: label 0

Problem: Assay outcome for `Cc1cccc(N(C)C)c1` : what was it?
Result: label 0

Problem: Status in this test for `CCN(CC)c1cccc(C)c1` ?
Result: label 0
